- System: HT-22
- measurementProtocol: Neuroprotective activity in mouse HT22 cells assessed as inhibition of glutamate-induced cell death after 24 hrs by MTT assay
- Type: functional, cell-based
- measurementContext: HT-22, 24 h
readoutName: EC50 (µM)
Record the value in µM, omitting the unit from your answer.

Reported EC50 ( COc1ccc(C(C)=O)c(O)c1O ) = 10.9

====

- measurementProtocol: Antioxidant activity assessed as hydrogen peroxide radical scavenging activity
- Assay type: functional
readoutName: pIC50
Give only the number. pIC50 is defined as minus log10 of concentration in molar units.

Looking up COc1ccc(C(C)=O)c(O)c1O , I found its pIC50 recorded as 4.04

Lab book: pIC50 of O=C1O[C@H]([C@@H](O)CO)C(O)=C1O noted as 4.11

All figures here come from ChEMBL document CHEMBL3091287.
